The measurements presented in this section are drawn from patent US9359297B2.

target: human metabotropic glutamate receptor 5 (hmGluR5) (Homo sapiens); construct: expressed in transfected cells; assay: Calcium mobilization (FLIPR) assay for negative allosteric modulation, EC80 glutamate, hmGluR5 in HEK 293; assay type: cell-based; conditions: HEK293; hmGluR5, inhibition of EC80 glutamate response; read-out: FLIPR maximum inhibition
readoutKind: Emax

Use the examples below as a reference point.
- molecule: "O=C(N[C@@H]1CCC[C@@]2(CCN(c3cc(F)cc(F)c3)C2=O)C1)c1nccs1 (relative stereo)"
  result: "47 to 93%"
- molecule: "Cc1cccc(C(=O)N[C@@H]2CCC[C@@]3(CCN(c4ccnc(C(F)(F)F)n4)C3=O)C2)n1"
  result: "47 to 93%"
- molecule: "Cc1nccc(C(=O)N[C@@H]2C[C@](C)(O)C[C@@]3(CCN(c4cc(F)cc(F)c4)C3=O)C2)n1 (single isomer, unassigned)"
  result: "47 to 93%"

Input Cc1nccc(N2CC[C@]3(CCC[C@H](NC(=O)c4cccc(C(F)(F)F)n4)C3)C2=O)n1 (relative stereo) . Output Emax: 73 to 95%

Input `Cc1nccc(N2CC[C@@]3(CCC[C@@H](NC(=O)c4cccc(F)c4)C3)C2=O)n1` . Output Emax: 47 to 93%

Input Cc1nccc(N2CC[C@]3(C[C@H](NC(=O)c4ccccn4)CC(F)(F)C3)C2=O)n1 (relative stereo) . Output Emax: 47 to 93%

---

Target: human metabotropic glutamate receptor 5 (hmGluR5) (Homo sapiens, UniProt P41594)
Construct: expressed in transfected cells
Sequence (P41594 21-1212): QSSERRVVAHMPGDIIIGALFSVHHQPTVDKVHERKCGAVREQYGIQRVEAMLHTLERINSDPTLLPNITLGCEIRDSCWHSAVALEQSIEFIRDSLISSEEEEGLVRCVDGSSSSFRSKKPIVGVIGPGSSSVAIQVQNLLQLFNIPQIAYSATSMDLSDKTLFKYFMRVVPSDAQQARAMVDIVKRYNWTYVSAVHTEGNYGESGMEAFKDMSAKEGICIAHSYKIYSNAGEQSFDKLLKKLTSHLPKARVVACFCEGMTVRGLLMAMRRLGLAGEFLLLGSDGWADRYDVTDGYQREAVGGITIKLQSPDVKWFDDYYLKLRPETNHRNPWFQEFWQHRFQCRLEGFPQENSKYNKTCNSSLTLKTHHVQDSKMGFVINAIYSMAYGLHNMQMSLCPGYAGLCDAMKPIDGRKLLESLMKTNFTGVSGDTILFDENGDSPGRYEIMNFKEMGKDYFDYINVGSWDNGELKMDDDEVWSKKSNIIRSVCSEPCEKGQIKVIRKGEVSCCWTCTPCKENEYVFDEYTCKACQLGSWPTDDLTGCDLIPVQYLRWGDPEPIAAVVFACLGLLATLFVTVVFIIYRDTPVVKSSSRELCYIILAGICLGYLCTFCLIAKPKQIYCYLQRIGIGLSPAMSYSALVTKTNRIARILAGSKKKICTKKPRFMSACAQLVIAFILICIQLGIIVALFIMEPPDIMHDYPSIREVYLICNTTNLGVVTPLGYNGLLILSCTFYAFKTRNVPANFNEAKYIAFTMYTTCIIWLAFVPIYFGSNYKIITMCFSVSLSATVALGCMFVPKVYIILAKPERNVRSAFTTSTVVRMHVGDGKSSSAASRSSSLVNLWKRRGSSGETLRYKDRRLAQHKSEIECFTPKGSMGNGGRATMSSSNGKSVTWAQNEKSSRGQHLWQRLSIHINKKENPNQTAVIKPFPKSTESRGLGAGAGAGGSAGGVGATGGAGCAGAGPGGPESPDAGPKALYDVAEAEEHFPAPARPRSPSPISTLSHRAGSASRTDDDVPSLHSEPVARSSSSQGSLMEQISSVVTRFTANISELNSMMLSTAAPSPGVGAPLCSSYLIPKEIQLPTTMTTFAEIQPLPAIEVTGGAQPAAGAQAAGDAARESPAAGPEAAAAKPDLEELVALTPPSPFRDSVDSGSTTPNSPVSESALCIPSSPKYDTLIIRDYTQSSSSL
Experiment: Calcium mobilization (FLIPR) assay for negative allosteric modulation, EC80 glutamate, hmGluR5 in HEK 293
Assay type: cell-based
Details: HEK293; hmGluR5, inhibition of EC80 glutamate response; read-out: FLIPR maximum inhibition
Description: The cDNA for rat metabotropic glutamate receptor 5 (rmGluR5) and the cDNA for human metabotropic glutamate receptor 5 (hmGluR5) were generous gifts from S. Nakanishi (Kyoto University, Kyoto, Japan). […] Basal fluorescence is monitored in a fluorometric imaging plate reader (FLIPR) (Molecular Devices, Sunnyvale, Calif.) with an excitation wavelength of 488 nm and an emission range of 500 to 560 nm. […] Basal readings derived from negative controls were subtracted from all samples. […]
readoutKind: Emax

Input CCN1CC[C@]2(CCC[C@H](NC(=O)c3cccc(C)n3)C2)C1=O (relative stereo) . Output Emax: 47 to 93%

Input Cc1nccc(C(=O)N[C@H]2CCC[C@]3(CCN(c4cc(F)cc(F)c4)C3=O)C2)n1 (racemic) . Output Emax: 73 to 95%

Input O=C(N[C@H]1CCC[C@]2(CCN(c3cccc(F)c3)C2=O)C1)c1cccc(C(F)(F)F)n1 (relative stereo) . Output Emax: 73 to 95%

---

target: mGluR5 (allosteric site, [3H]MPEP) (Homo sapiens); experiment: [3H]MPEP radioligand filtration binding assay on membrane homogenates; settings: 5 nM [3H]MPEP; Ki from IC50 by Cheng and Prusoff equation
Sequence (P41594 21-1212): as above
readoutKind: Ki (nM)

- compound: "O=C(N[C@H]1CCC[C@]2(CCN(c3cccc(Cl)c3)C2=O)C1)c1ccccn1 (racemic)"
  readoutKind: "Ki"
  result: 250
- compound: "Cc1cccc(C(=O)N[C@H]2CCC[C@]3(CCN(c4cccc(Cl)c4)C3=O)C2)n1 (relative stereo)"
  readoutKind: "Ki"
  result: 74
- compound: "O=C(N[C@@H]1CCC[C@@]2(CCN(c3cccc(F)c3)C2=O)C1)c1ccccn1"
  readoutKind: "Ki"
  result: 130

A: O=C(N[C@@H]1CCC[C@@]2(CCN(c3cccc(Cl)c3)C2=O)C1)c1ccccn1 (single isomer, unassigned)
B: Cc1cccc(C(=O)N[C@H]2CCC[C@]3(CCN(c4cccc(C)n4)C3=O)C2)n1 (relative stereo)
// task: argmin of Ki over [ A , B ] Your choice should be expressed through its label.
A
(A: 95 nM, B: 190 nM)

---

molecular target: human metabotropic glutamate receptor 5 (hmGluR5) (Homo sapiens); construct: expressed in transfected cells; assay: Calcium mobilization (FLIPR) assay for negative allosteric modulation, EC80 glutamate, hmGluR5 in HEK 293; format: cell-based; conditions: HEK293; hmGluR5, inhibition of EC80 glutamate response; read-out: FLIPR maximum inhibition
readoutKind: Emax

- molecule: "Cc1cccc(C(=O)N[C@@H]2CCC[C@@]3(CCN(c4ccc(F)cn4)C3=O)C2)n1"
  result: "73 to 95%"
- molecule: "Cc1nccc(N2CC[C@]3(CCC[C@H](NC(=O)c4cc(F)cc(F)c4)C3)C2=O)n1 (relative stereo)"
  result: "73 to 95%"
- molecule: "O=C(N[C@H]1CCC[C@]2(CCN(c3cccc(OCC(=O)N4CCCC4)c3)C2=O)C1)c1cccc(F)c1 (relative stereo)"
  result: "47 to 93%"

Input O=C(N[C@H]1CCC[C@]2(CCN(c3cc(F)cc(F)c3)C2=O)C1)c1ccncn1 (relative stereo) . Output Emax: 73 to 95%

Input Cc1nccc(C(=O)N[C@H]2CCC[C@]3(CCN(c4cccc(C#N)c4)C3=O)C2)n1 (relative stereo) . Output Emax: 73 to 95%

Input O=C(N[C@@H]1CC(F)(F)C[C@@]2(CCN(c3cccc(F)c3)C2=O)C1)c1ccccn1 (racemic) [Example 97] . Output Emax: 88 to 93%

Input COc1cccc(N2CC[C@]3(CCC[C@H](NC(=O)c4cccc(C)n4)C3)C2=O)c1 (relative stereo) . Output Emax: 73 to 95%

---

Reported Emax values for the following compounds.
target: human metabotropic glutamate receptor 5 (hmGluR5) (Homo sapiens); construct: expressed in transfected cells; test: Calcium mobilization (FLIPR) assay for negative allosteric modulation, EC80 glutamate, hmGluR5 in HEK 293; assay type: cell-based; conditions: HEK293; hmGluR5, inhibition of EC80 glutamate response; read-out: FLIPR maximum inhibition

Use the examples below as a reference point.
- compound: "O=C(N[C@H]1CCC[C@]2(CCN(c3cncc(F)c3)C2=O)C1)c1ccccn1 (relative stereo) [Example 74]"
  result: "73 to 95%"
- compound: "Cc1cccc(C(=O)N[C@@H]2CCC[C@@]3(CCN(c4cc(F)cc(F)c4)C3=O)C2)n1 (single isomer, unassigned) [Example 67]"
  result: "73 to 95%"

Consider the additional compound presented here.
Input Cc1nccc(C(=O)N[C@@H]2CC(F)(F)C[C@@]3(CCN(c4cccc(F)c4)C3=O)C2)n1 (single isomer, unassigned) [Example 104] . Output Emax: 47 to 93%

---

target: human metabotropic glutamate receptor 5 (hmGluR5) (Homo sapiens, UniProt P41594); construct: expressed in transfected cells; assay: Calcium mobilization (FLIPR) assay for negative allosteric modulation, EC80 glutamate, hmGluR5 in HEK 293; assay type: cell-based; details: HEK293; hmGluR5, inhibition of EC80 glutamate response; read-out: FLIPR maximum inhibition
Reported Emax values for the following compounds.

- compound: "Cc1cccc(C(=O)N[C@H]2CCC[C@]3(CCN(c4cc(-c5ccc(F)cc5)ncn4)C3=O)C2)n1 (relative stereo)"
  targetUnderTest: "human metabotropic glutamate receptor 5 (hmGluR5) (Homo sapiens, UniProt P41594)"
  result: "73 to 95%"
- compound: "Cc1nccc(N2CC[C@@]3(C[C@@H](NC(=O)c4cccc(F)c4)CC(F)(F)C3)C2=O)n1 (racemic) [Example 128]"
  targetUnderTest: "human metabotropic glutamate receptor 5 (hmGluR5) (Homo sapiens, UniProt P41594)"
  result: "47 to 93%"
- compound: "COc1cc(F)cc(N2CC[C@]3(CCC[C@H](NC(=O)c4cccc(F)c4)C3)C2=O)c1 (relative stereo)"
  targetUnderTest: "human metabotropic glutamate receptor 5 (hmGluR5) (Homo sapiens, UniProt P41594)"
  result: "47 to 93%"
- compound: "Cc1cccc(C(=O)N[C@@H]2CC(F)(F)C[C@@]3(CCN(c4ccnc(C)n4)C3=O)C2)n1 (relative stereo)"
  targetUnderTest: "human metabotropic glutamate receptor 5 (hmGluR5) (Homo sapiens, UniProt P41594)"
  result: "47 to 93%"
- compound: "O=C(N[C@@H]1CC(F)(F)C[C@@]2(CCN(c3ccc(F)cn3)C2=O)C1)c1ccccn1 (relative stereo)"
  targetUnderTest: "human metabotropic glutamate receptor 5 (hmGluR5) (Homo sapiens, UniProt P41594)"
  result: "47 to 93%"

Input O=C(N[C@@H]1CC(F)(F)C[C@@]2(CCN(c3cc(F)cc(F)c3)C2=O)C1)c1ccccn1 (racemic) [Example 110] . Output Emax: 47 to 93%

Input O=C(N[C@H]1CCC[C@]2(CCN(c3nccs3)C2=O)C1)c1cccc(F)c1 (relative stereo) . Output Emax: 47 to 93%

---

target: human metabotropic glutamate receptor 5 (hmGluR5) (Homo sapiens); construct: expressed in transfected cells; test: Calcium mobilization (FLIPR) assay for negative allosteric modulation, EC80 glutamate, hmGluR5 in HEK 293; type: cell-based; details: HEK293; hmGluR5, inhibition of EC80 glutamate response; read-out: FLIPR maximum inhibition
Reported Emax values for the following compounds.

- compound: "O=C(N[C@H]1CCC[C@]2(CCN(c3cccc(CCCN4CCOCC4)c3)C2=O)C1)c1cccc(F)c1 (relative stereo)"
  Emax: "47 to 93%"
- compound: "O=C(N[C@H]1CCC[C@]2(CCN(c3ccc(F)c(F)c3)C2=O)C1)c1ccccn1 (relative stereo)"
  Emax: "73 to 95%"
- compound: "Cc1cccc(C(=O)N[C@H]2CCC[C@]3(CCN(C)C3=O)C2)n1 (relative stereo)"
  Emax: "47 to 93%"
- compound: "COc1ccc(N2CC[C@]3(CCC[C@H](NC(=O)c4cccc(F)c4)C3)C2=O)cc1 (relative stereo)"
  Emax: "47 to 93%"

For the compound Cc1nccc(C(=O)N[C@@H]2C[C@@](C)(O)C[C@@]3(CCN(c4cc(F)cc(F)c4)C3=O)C2)n1 (single isomer, unassigned) , the measured Emax on human metabotropic glutamate receptor 5 (hmGluR5) (Homo sapiens) was 47 to 93%

For the compound Cc1cccc(C(=O)N[C@H]2CCC[C@]3(CCN(c4ccnc(C)n4)C3=O)C2)c1 (racemic) , the measured Emax on human metabotropic glutamate receptor 5 (hmGluR5) (Homo sapiens) was 73 to 95%

For the compound Cc1nccc(N2CC[C@]3(CCC[C@H](NC(=O)c4ccccc4F)C3)C2=O)n1 (relative stereo) , the measured Emax on human metabotropic glutamate receptor 5 (hmGluR5) (Homo sapiens) was 73 to 95%
